Each record here notes measured minimum inhibitory concentration.
# System: Pasteurella multocida
# testMethodNotes: minimum inhibitory concentration (MIC)
# conditionInfo: isolate (source animal id): 176

- compound: "COc1cc(Cc2cnc(N)nc2N)cc(OC)c1OC.Cc1cc(NS(=O)(=O)c2ccc(N)cc2)no1 [trimethoprim-sulfamethoxazole]"
  minimum inhibitory concentration: "≤ 2 µg/mL"
- compound: "CC1(C)S[C@@H]2[C@H](NC(=O)Cc3ccccc3)C(=O)N2[C@H]1C(=O)O [Penicillin]"
  minimum inhibitory concentration: "≤ 0.12 µg/mL"
- compound: "CCN1CCN(c2cc3c(cc2F)c(=O)c(C(=O)O)cn3C2CC2)CC1 [Enrofloxacin]"
  minimum inhibitory concentration: "≤ 0.12 µg/mL"
- compound: "CCC[C@@H]1C[C@@H](C(=O)N[C@@H]([C@H]2O[C@H](SC)[C@H](O)[C@@H](O)[C@H]2O)[C@H](C)Cl)N(C)C1 [Clindamycin]"
  minimum inhibitory concentration: "> 16 µg/mL"

====

# Tested on: Histophilus somni
# testMethodNotes: minimum inhibitory concentration (MIC)
# conditionInfo: isolate (source animal id): 336
Each record here notes measured minimum inhibitory concentration.
property: minimum inhibitory concentration

- smi: "CS(=O)(=O)c1ccc([C@@H](O)[C@@H](CF)NC(=O)C(Cl)Cl)cc1"
  systemTested: "Histophilus somni"
  measValue: "≤ 0.25 µg/mL"
- smi: "CC[C@H]1OC(=O)C[C@@H](O)[C@H](C)[C@@H](O[C@@H]2O[C@H](C)[C@@H](O)[C@H](N(C)C)[C@H]2O)[C@@H](CCN2C[C@H](C)C[C@H](C)C2)C[C@@H](C)C(=O)/C=C/C(C)=C/[C@@H]1CO[C@@H]1O[C@H](C)[C@@H](O)[C@@H](OC)[C@H]1OC"
  systemTested: "Histophilus somni"
  measValue: "8 µg/mL"
- smi: "CO/N=C(\\C(=O)N[C@@H]1C(=O)N2C(C(=O)O)=C(CSC(=O)c3ccco3)CS[C@H]12)c1csc(N)n1"
  systemTested: "Histophilus somni"
  measValue: "≤ 0.25 µg/mL"
- smi: "CCN1CCN(c2cc3c(cc2F)c(=O)c(C(=O)O)cn3C2CC2)CC1"
  systemTested: "Histophilus somni"
  measValue: "≤ 0.12 µg/mL"
- smi: "CN1C[C@@H]2C[C@H]1CN2c1cc2c(cc1F)c(=O)c(C(=O)O)cn2C1CC1"
  systemTested: "Histophilus somni"
  measValue: "≤ 0.12 µg/mL"

====

# System: Enterococcus spp.
# testMethodNotes: minimum inhibitory concentration (MIC)
# conditionInfo: isolate (source animal id): 235

- compound: "CNC(C)C1CCC(N)C(OC2C(N)CC(N)C(OC3OCC(C)(O)C(NC)C3O)C2O)O1 (centres undefined) [Gentamicin]"
  minimum inhibitory concentration: "4 µg/mL"
- compound: "NC[C@@H]1O[C@H](O[C@H]2[C@@H](O)[C@H](O[C@@H]3[C@@H](O)[C@H](N)C[C@H](N)[C@H]3O[C@H]3O[C@H](CN)[C@@H](O)[C@H](O)[C@H]3N)O[C@@H]2CO)[C@H](N)[C@@H](O)[C@@H]1O [Neomycin]"
  minimum inhibitory concentration: "> 32 µg/mL"
- compound: "CC[C@H]1OC(=O)C[C@@H](O)[C@H](C)[C@@H](O[C@@H]2O[C@H](C)[C@@H](O)[C@H](N(C)C)[C@H]2O)[C@@H](CCN2C[C@H](C)C[C@H](C)C2)C[C@@H](C)C(=O)/C=C/C(C)=C/[C@@H]1CO[C@@H]1O[C@H](C)[C@@H](O)[C@@H](OC)[C@H]1OC [Tilmicosin]"
  minimum inhibitory concentration: "> 16 µg/mL"
- compound: "COc1cc(Cc2cnc(N)nc2N)cc(OC)c1OC.Cc1cc(NS(=O)(=O)c2ccc(N)cc2)no1 [trimethoprim-sulfamethoxazole]"
  minimum inhibitory concentration: "≤ 2 µg/mL"
